- protocolNotes: Agonist activity at monkey MrgX1 receptor
- Assay type: functional, Macaca mulatta
observedProperty: pEC50
The response must contain the number and no unit.

stdin: # get_value(readout='pEC50', item= CC(=O)NC1CCN(c2ccc3c(c2)-c2nc4cc(C(=O)N5CCN(c6ccc(F)cc6)CC5)ccc4n2[C@@H](C(C)C)C(=O)N3)C1 (some centres not stated) )
stdout: 5.6

stdin: Fill in the blank: the reported pEC50 of CCC(C)[C@H]1C(=O)Nc2ccc(N3CCC(NC(C)=O)C3)cc2-c2nc3cc(C(=O)NCc4cccc(C(F)(F)F)c4)ccc3n21 (some centres not stated) is ____.
stdout: 6.4

stdin: Please look up its pEC50: CCC(C)[C@H]1C(=O)Nc2ccc(NCCN3CCCCC3)cc2-c2nc3cc(C(=O)NCc4cccc(C(F)(F)F)c4)ccc3n21 (some centres not stated)
stdout: 6.1

stdin: Entry CCC(C)[C@H]1C(=O)Nc2ccc(NCCOCCOCCN)cc2-c2nc3cc(C(=O)NCc4cccc(C(F)(F)F)c4)ccc3n21 (some centres not stated) : reported pEC50 = ?
stdout: 6.1

stdin: Fill in the blank: the reported pEC50 of CCC(C)[C@H]1C(=O)Nc2ccc(NCCCN(C)C)cc2-c2nc3cc(C(=O)NCc4cccc(C(F)(F)F)c4)ccc3n21 (some centres not stated) is ____.
stdout: 6.1

stdin: // lookup pEC50 for CC(C)[C@H]1C(=O)Nc2ccc(NCCN3CCCCC3)cc2-c2nc3cc(C(=O)N4CCN(c5ccc(F)cc5)CC4)ccc3n21
stdout: 6

stdin: May I ask what pEC50 has been recorded for CC(C)[C@H]1C(=O)Nc2ccc(NCCCN(C)C)cc2-c2nc3cc(C(=O)N4CCN(c5ccc(F)cc5)CC4)ccc3n21 ?
stdout: 5.8

----------
- testTarget: UniProt Q96LB2
- protocolNotes: Agonist activity at human MrgX1 receptor at 10 uM relative to BAM22
- Assay type: functional
Active and inactive are the calls of the source. The rule behind the calls is not given here. Bridge positions count the residues as written; N and C are the ends. Square brackets hold non-standard residues; d marks the D form. Peptide text beside a SMILES is read from it.
observedProperty: Efficacy

The cases that follow already have their Efficacy on record.
[
  {
    "molecule": "CCC(C)[C@H]1C(=O)Nc2ccc(NCCOCCOCCN)cc2-c2nc3cc(C(=O)NCc4cccc(C(F)(F)F)c4)ccc3n21 (some centres not stated)",
    "experimentalResult": "135%"
  },
  {
    "molecule": "CC(C)[C@H]1C(=O)Nc2ccc(N3CCN(Cc4ccccc4)CC3)cc2-c2nc3cc(C(=O)N(C)C4CCN(C)CC4)ccc3n21",
    "experimentalResult": "inactive"
  },
  {
    "molecule": "CCC(C)[C@H]1C(=O)Nc2ccc(N3CCC(NC(C)=O)C3)cc2-c2nc3cc(C(=O)NCc4cccc(C(F)(F)F)c4)ccc3n21 (some centres not stated)",
    "experimentalResult": "129%"
  },
  {
    "molecule": "CC(=O)NC1CCN(c2ccc3c(c2)-c2nc4cc(C(=O)N5CCN(c6ccc(F)cc6)CC5)ccc4n2[C@@H](C(C)C)C(=O)N3)C1 (some centres not stated)",
    "experimentalResult": "98%"
  }
]

stdin: May I ask what Efficacy has been recorded for C[C@@H](O)[C@@H]1NC(=O)[C@@H](CCCCN)NC(=O)[C@H](Cc2c[nH]c3ccccc23)NC(=O)[C@H](Cc2ccccc2)NC(=O)[C@H](Cc2ccccc2)NC(=O)[C@H](CC(N)=O)NC(=O)[C@H](CCCCN)NC(=O)[C@@H](NC(=O)[C@@H]2CCCN2)CSSC[C@@H](C(=O)N[C@@H](CCCCN)C(=O)O)NC(=O)[C@H](CO)NC(=O)[C@H](CO)NC(=O)[C@@H](Cc2ccccc2)NC1=O [CORTISTATIN-14] (H-PCKNFFW[dK]T[dF]SSCK-OH; disulfide 2-13) ?
stdout: inactive

stdin: Sample CCC(C)[C@H]1C(=O)Nc2ccc(NCCN3CCCCC3)cc2-c2nc3cc(C(=O)NCc4cccc(C(F)(F)F)c4)ccc3n21 (some centres not stated) — what was its Efficacy?
stdout: 133%

stdin: Could you share which Efficacy value was measured for CC(C)[C@H]1C(=O)Nc2ccc(NC3CCCCCC3)cc2-c2nc3cc(C(=O)N4CCCN(C)CC4)ccc3n21 ?
stdout: inactive

----------
- protocolNotes: Metabolic stability in human liver microsome assessed as intrinsic clearance
- Assay type: ADME
- conditionContext: liver microsomes
observedProperty: microsomal CLint (µL/min/mg)
Reply numerically in µL/min/mg, unit not repeated.

stdin: Report microsomal CLint for CC(C)[C@H]1C(=O)Nc2ccc(N3CCN(Cc4ccccc4)CC3)cc2-c2nc3cc(C(=O)N(C)C4CCN(C)CC4)ccc3n21 please.
stdout: 5

----------
- testTarget: UniProtKB Q96LB2
- protocolNotes: Agonist activity at human MrgX1 receptor at 10 uM relative to BAM22
- Type: functional
observedProperty: Efficacy

stdin: What Efficacy value was documented for this compound, CCC(C)[C@H]1C(=O)Nc2ccc(NCCCN(C)C)cc2-c2nc3cc(C(=O)NCc4cccc(C(F)(F)F)c4)ccc3n21 (some centres undefined) ?
stdout: 147%

stdin: Give the measured Efficacy of CC(C)[C@H]1C(=O)Nc2ccc(NCCN3CCCCC3)cc2-c2nc3cc(C(=O)N4CCN(c5ccc(F)cc5)CC4)ccc3n21 .
stdout: 94%

stdin: Field request: Efficacy | item: CC(C)[C@H]1C(=O)Nc2ccc(NCCCN(C)C)cc2-c2nc3cc(C(=O)N4CCN(c5ccc(F)cc5)CC4)ccc3n21
stdout: 108%

----------
- testTarget: Mas-related G-protein coupled receptor member X2 (Homo sapiens) (UniProt Q96LB1)
- Sequence (Q96LB1 whole entry): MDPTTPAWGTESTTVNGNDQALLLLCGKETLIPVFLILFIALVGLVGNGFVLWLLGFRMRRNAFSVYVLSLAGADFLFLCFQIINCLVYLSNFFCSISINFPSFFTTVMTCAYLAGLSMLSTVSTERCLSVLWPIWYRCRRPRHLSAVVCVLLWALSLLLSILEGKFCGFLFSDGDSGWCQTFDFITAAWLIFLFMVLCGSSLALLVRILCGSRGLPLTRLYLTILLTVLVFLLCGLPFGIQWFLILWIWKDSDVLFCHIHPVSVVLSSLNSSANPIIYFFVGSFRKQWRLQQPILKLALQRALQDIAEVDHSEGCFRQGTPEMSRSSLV
- protocolNotes: Agonist activity at human MrgX2 receptor at 10 uM relative to cortistatin-14
- Type: functional
Calls of active or inactive are those of the source. The calls are words filed in the database; no cut-off is given here.

[
  {
    "compound": "CCC(C)[C@H]1C(=O)Nc2ccc(NCCOCCOCCN)cc2-c2nc3cc(C(=O)NCc4cccc(C(F)(F)F)c4)ccc3n21 (some centres undefined)",
    "Efficacy": "inactive"
  },
  {
    "compound": "CCC(C)[C@H]1C(=O)Nc2ccc(NCCCN(C)C)cc2-c2nc3cc(C(=O)NCc4cccc(C(F)(F)F)c4)ccc3n21 (some centres undefined)",
    "Efficacy": "103%"
  },
  {
    "compound": "CC(C)[C@H]1C(=O)Nc2ccc(NCCN3CCCCC3)cc2-c2nc3cc(C(=O)N4CCN(c5ccc(F)cc5)CC4)ccc3n21",
    "Efficacy": "inactive"
  },
  {
    "compound": "CC(C)[C@H]1C(=O)Nc2ccc(NCc3ccccc3)cc2-c2nc3cc(C(=O)N(C)C4CCN(C)CC4)ccc3n21",
    "Efficacy": "87%"
  }
]

----------
- protocolNotes: Agonist activity at monkey MrgX2 receptor
- Format: functional, Macaca mulatta
Bridge positions count the residues as written; N and C are the ends. Square brackets hold non-standard residues; d marks the D form. Peptide text beside a SMILES is read from it.
Provide the recorded pEC50 for the entries that follow.

stdin: Please give the measured pEC50 for this compound: CC(C)[C@H]1C(=O)Nc2ccc(N3CCN(Cc4ccccc4)CC3)cc2-c2nc3cc(C(=O)N(C)C4CCN(C)CC4)ccc3n21
stdout: 6.7

stdin: Recorded pEC50 for CCC(C)[C@H]1C(=O)Nc2ccc(NCCCN(C)C)cc2-c2nc3cc(C(=O)NCc4cccc(C(F)(F)F)c4)ccc3n21 (stereo not given in full) , please?
stdout: 5.4

stdin: Endpoint output: pEC50 of CCC(C)[C@H]1C(=O)Nc2ccc(N3CCC(NC(C)=O)C3)cc2-c2nc3cc(C(=O)NCc4cccc(C(F)(F)F)c4)ccc3n21 (stereo not given in full) . Value?
stdout: 5.7

stdin: Return reported pEC50; argument: C[C@@H](O)[C@@H]1NC(=O)[C@@H](CCCCN)NC(=O)[C@H](Cc2c[nH]c3ccccc23)NC(=O)[C@H](Cc2ccccc2)NC(=O)[C@H](Cc2ccccc2)NC(=O)[C@H](CC(N)=O)NC(=O)[C@H](CCCCN)NC(=O)[C@@H](NC(=O)[C@@H]2CCCN2)CSSC[C@@H](C(=O)N[C@@H](CCCCN)C(=O)O)NC(=O)[C@H](CO)NC(=O)[C@H](CO)NC(=O)[C@@H](Cc2ccccc2)NC1=O [CORTISTATIN-14] (H-PCKNFFW[dK]T[dF]SSCK-OH; disulfide 2-13)
stdout: 6.1

stdin: Given the compound CC(C)[C@H]1C(=O)Nc2ccc(NC3CCCCCC3)cc2-c2nc3cc(C(=O)N4CCCN(C)CC4)ccc3n21 , what is its reported pEC50?
stdout: 6.4

----------
- testTarget: Mas-related G-protein coupled receptor member X1 (Homo sapiens)
- Sequence (Q96LB2 whole entry): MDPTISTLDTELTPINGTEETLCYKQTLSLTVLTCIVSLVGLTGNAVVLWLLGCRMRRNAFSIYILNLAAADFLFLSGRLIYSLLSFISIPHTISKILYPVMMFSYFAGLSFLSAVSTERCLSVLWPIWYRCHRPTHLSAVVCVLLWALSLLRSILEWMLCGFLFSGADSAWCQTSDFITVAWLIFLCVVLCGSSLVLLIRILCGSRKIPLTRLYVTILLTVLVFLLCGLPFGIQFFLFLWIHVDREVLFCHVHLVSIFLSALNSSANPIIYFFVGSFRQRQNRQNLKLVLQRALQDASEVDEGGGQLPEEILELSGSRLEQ
- protocolNotes: Agonist activity at human MrgX1 receptor
Entries whose EC50 is below 600 nM take met; entries at or above 600 nM take not met.

stdin: Is EC50 strictly under 600 nM for the entry CC(C)[C@H]1C(=O)Nc2ccc(NCCCN(C)C)cc2-c2nc3cc(C(=O)N4CCN(c5ccc(F)cc5)CC4)ccc3n21 ?
stdout: not met

stdin: Quick check: EC50 of CCC(C)[C@H]1C(=O)Nc2ccc(NCCOCCOCCN)cc2-c2nc3cc(C(=O)NCc4cccc(C(F)(F)F)c4)ccc3n21 (some centres not stated) under 600 nM?
stdout: met

stdin: Quick check: EC50 of CCC(C)[C@H]1C(=O)Nc2ccc(N3CCC(NC(C)=O)C3)cc2-c2nc3cc(C(=O)NCc4cccc(C(F)(F)F)c4)ccc3n21 (some centres not stated) under 600 nM?
stdout: met

stdin: Dear reviewer, please state whether CCC(C)[C@H]1C(=O)Nc2ccc(NCCCN(C)C)cc2-c2nc3cc(C(=O)NCc4cccc(C(F)(F)F)c4)ccc3n21 (some centres not stated) has EC50 strictly beneath 600 nM.
stdout: met

stdin: Confirm or reject: EC50 of CC(=O)NC1CCN(c2ccc3c(c2)-c2nc4cc(C(=O)N5CCN(c6ccc(F)cc6)CC5)ccc4n2[C@@H](C(C)C)C(=O)N3)C1 (some centres not stated) lies strictly below 600 nM
stdout: not met

stdin: Please indicate whether the reported EC50 of CCC(C)[C@H]1C(=O)Nc2ccc(NCCN3CCCCC3)cc2-c2nc3cc(C(=O)NCc4cccc(C(F)(F)F)c4)ccc3n21 (some centres not stated) is strictly below 600 nM.
stdout: met

stdin: Check if EC50 falls below 600 nM for CC(C)[C@H]1C(=O)Nc2ccc(NCCN3CCCCC3)cc2-c2nc3cc(C(=O)N4CCN(c5ccc(F)cc5)CC4)ccc3n21 .
stdout: not met
